Recorded relative viability values for a group of compounds are listed next.
- Test system: HCC-44
- METHOD: relative viability (nuclei count vs DMSO), 5 days (fraction); higher = more cells survive
- CONDITIONS: first compound 500 µM

COMPOUND | relative viability
O=C(O)CCCCC(CCSCc1ccccc1)SCc1ccccc1 (stereo not drawn) [CPI-613] + CCNC(=O)c1noc(-c2cc(C(C)C)c(O)cc2O)c1-c1ccc(CN2CCOCC2)cc1 [Luminespib] (partner 0.01 µM) | 0.121
O=C(O)CCCCC(CCSCc1ccccc1)SCc1ccccc1 (stereo not drawn) [CPI-613] + Cc1nc(NC(=O)N2CCC[C@H]2C(N)=O)sc1-c1ccnc(C(C)(C)C(F)(F)F)c1 [Alpelisib] (partner 2 µM) | 0.041
O=C(O)CCCCC(CCSCc1ccccc1)SCc1ccccc1 (stereo not drawn) [CPI-613] + Nc1nc2[nH]cc(CCc3ccc(C(=O)N[C@@H](CCC(=O)O)C(=O)O)cc3)c2c(=O)[nH]1 [Pemetrexed] (partner 0.2 µM) | 0.53

====

Recorded relative viability values for a group of compounds are listed next.
- Test system: NCI-H520
- METHOD: relative viability (nuclei count vs DMSO), 5 days (fraction); higher = more cells survive
- CONDITIONS: first compound 0.4 µM
MEASURED_QUANTITY: relative viability

COMPOUND | SYSTEM | MEASUREMENT
Cc1sc2c(c1C)C(c1ccc(Cl)cc1)=N[C@@H](CC(=O)OC(C)(C)C)c1nnc(C)n1-2 [JQ1] + CS(=O)(=O)CCNCc1ccc(-c2ccc3ncnc(Nc4ccc(OCc5cccc(F)c5)c(Cl)c4)c3c2)o1 [Lapatinib] (partner 2 µM) | NCI-H520 | 0.716
Cc1sc2c(c1C)C(c1ccc(Cl)cc1)=N[C@@H](CC(=O)OC(C)(C)C)c1nnc(C)n1-2 [JQ1] + CS(=O)(=O)N1CCN(Cc2cc3nc(-c4cccc5[nH]ncc45)nc(N4CCOCC4)c3s2)CC1 [Pictilisib] (partner 1 µM) | NCI-H520 | 0.253
Cc1sc2c(c1C)C(c1ccc(Cl)cc1)=N[C@@H](CC(=O)OC(C)(C)C)c1nnc(C)n1-2 [JQ1] + C[C@@H](Oc1cc(-c2cnn(C3CCNCC3)c2)cnc1N)c1c(Cl)ccc(F)c1Cl [Crizotinib] (partner 1 µM) | NCI-H520 | 0.578
Cc1sc2c(c1C)C(c1ccc(Cl)cc1)=N[C@@H](CC(=O)OC(C)(C)C)c1nnc(C)n1-2 [JQ1] + CC(=O)Nc1cccc(-n2c(=O)n(C3CC3)c(=O)c3c(Nc4ccc(I)cc4F)n(C)c(=O)c(C)c32)c1 [Trametinib] (partner 0.02 µM) | NCI-H520 | 0.386

====

- Test system: ABC-1
- METHOD: relative viability (nuclei count vs DMSO), 5 days (fraction); higher = more cells survive
- CONDITIONS: first compound 0.8 µM

COMPOUND | relative viability
Cc1cnc(-c2cnc(NCCNc3ccc(C#N)cn3)nc2-c2ccc(Cl)cc2Cl)[nH]1 + COc1cccc2cc(-c3nc([C@H]4CC[C@H](C(=O)O)CC4)n4ncnc(N)c34)[nH]c12 [OSI-027] (partner 0.5 µM) | 0.553
O=c1[nH]c2ccccc2n1C1CCN(CCCC(c2ccc(F)cc2)c2ccc(F)cc2)CC1 [Pimozide] + O=C(CCCCCCC(=O)Nc1ccccc1)NO [Vorinostat] (partner 1 µM) | 0.884
Cc1cnc(-c2cnc(NCCNc3ccc(C#N)cn3)nc2-c2ccc(Cl)cc2Cl)[nH]1 + CC(=O)c1c(C)c2cnc(Nc3ccc(N4CCNCC4)cn3)nc2n(C2CCCC2)c1=O [Palbociclib] (partner 0.5 µM) | 0.54
Cc1cnc(-c2cnc(NCCNc3ccc(C#N)cn3)nc2-c2ccc(Cl)cc2Cl)[nH]1 + C[C@@H](Oc1cc(-c2cnn(C3CCNCC3)c2)cnc1N)c1c(Cl)ccc(F)c1Cl [Crizotinib] (partner 1 µM) | 1.23
Cc1cnc(-c2cnc(NCCNc3ccc(C#N)cn3)nc2-c2ccc(Cl)cc2Cl)[nH]1 + Cc1nc(Nc2ncc(C(=O)Nc3c(C)cccc3Cl)s2)cc(N2CCN(CCO)CC2)n1 [Dasatinib] (partner 0.075 µM) | 0.476
Cc1cnc(-c2cnc(NCCNc3ccc(C#N)cn3)nc2-c2ccc(Cl)cc2Cl)[nH]1 + Nc1ncn([C@H]2C[C@H](O)[C@@H](CO)O2)c(=O)n1 [Decitabine] (partner 2 µM) | 1.08
Cc1cnc(-c2cnc(NCCNc3ccc(C#N)cn3)nc2-c2ccc(Cl)cc2Cl)[nH]1 + COc1cc2c(Oc3ccc(NC(=O)C4(C(=O)Nc5ccc(F)cc5)CC4)cc3F)ccnc2cc1OCCCN1CCOCC1 [Foretinib] (partner 0.25 µM) | 1.34
Cc1cnc(-c2cnc(NCCNc3ccc(C#N)cn3)nc2-c2ccc(Cl)cc2Cl)[nH]1 + Cc1nc(NC(=O)N2CCC[C@H]2C(N)=O)sc1-c1ccnc(C(C)(C)C(F)(F)F)c1 [Alpelisib] (partner 2 µM) | 1.02
O=c1[nH]c2ccccc2n1C1CCN(CCCC(c2ccc(F)cc2)c2ccc(F)cc2)CC1 [Pimozide] + Nc1ncn([C@H]2C[C@H](O)[C@@H](CO)O2)c(=O)n1 [Decitabine] (partner 2 µM) | 1.22

====

- Tested on: LU99A
- METHOD: relative viability (nuclei count vs DMSO), 5 days (fraction); higher = more cells survive
- CONDITIONS: first compound 4 µM
Recorded relative viability values for a group of molecules are listed next.

MOLECULE | relative viability
Cc1sc2c(c1C)C(c1ccc(Cl)cc1)=N[C@@H](CC(=O)OC(C)(C)C)c1nnc(C)n1-2 [JQ1] + N=C(N)NC(=N)NCCc1ccccc1 [Phenformin] (partner 250 µM) | 0.26
Cc1sc2c(c1C)C(c1ccc(Cl)cc1)=N[C@@H](CC(=O)OC(C)(C)C)c1nnc(C)n1-2 [JQ1] + CS(=O)(=O)CCNCc1ccc(-c2ccc3ncnc(Nc4ccc(OCc5cccc(F)c5)c(Cl)c4)c3c2)o1 [Lapatinib] (partner 2 µM) | 0.217
Cc1sc2c(c1C)C(c1ccc(Cl)cc1)=N[C@@H](CC(=O)OC(C)(C)C)c1nnc(C)n1-2 [JQ1] + Cc1cc(Nc2cc(N3CCN(C)CC3)nc(Sc3ccc(NC(=O)C4CC4)cc3)n2)n[nH]1 [Tozasertib] (partner 0.1 µM) | 0.159
Cc1sc2c(c1C)C(c1ccc(Cl)cc1)=N[C@@H](CC(=O)OC(C)(C)C)c1nnc(C)n1-2 [JQ1] + C[C@@H](Oc1cc(-c2cnn(C3CCNCC3)c2)cnc1N)c1c(Cl)ccc(F)c1Cl [Crizotinib] (partner 1 µM) | 0.198
Cc1sc2c(c1C)C(c1ccc(Cl)cc1)=N[C@@H](CC(=O)OC(C)(C)C)c1nnc(C)n1-2 [JQ1] + NC(=O)Nc1cc(-c2cccc(F)c2)sc1C(=O)N[C@H]1CCCNC1 [AZD7762] (partner 0.2 µM) | 0.172

====

Recorded relative viability values for a group of compounds are listed next.
- System: EMC-BAC-2
- METHOD: relative viability (nuclei count vs DMSO), 5 days (fraction); higher = more cells survive
- CONDITIONS: first compound 0.006325 µM

COMPOUND | SYSTEM | relative viability
CC(=O)O[C@@]12CO[C@@H]1C[C@H](O)[C@@]1(C)C(=O)[C@H](O)C3=C(C)[C@@H](OC(=O)[C@H](O)[C@@H](NC(=O)OC(C)(C)C)c4ccccc4)C[C@@](O)([C@@H](OC(=O)c4ccccc4)[C@H]21)C3(C)C [Docetaxel] + O=C(c1cc(Cc2n[nH]c(=O)c3ccccc23)ccc1F)N1CCN(C(=O)C2CC2)CC1 [Olaparib] (partner 8 µM) | EMC-BAC-2 | 0.318
CC(=O)O[C@@]12CO[C@@H]1C[C@H](O)[C@@]1(C)C(=O)[C@H](O)C3=C(C)[C@@H](OC(=O)[C@H](O)[C@@H](NC(=O)OC(C)(C)C)c4ccccc4)C[C@@](O)([C@@H](OC(=O)c4ccccc4)[C@H]21)C3(C)C [Docetaxel] + NC(=O)Nc1cc(-c2cccc(F)c2)sc1C(=O)N[C@H]1CCCNC1 [AZD7762] (partner 0.2 µM) | EMC-BAC-2 | 0.334
CC(=O)O[C@@]12CO[C@@H]1C[C@H](O)[C@@]1(C)C(=O)[C@H](O)C3=C(C)[C@@H](OC(=O)[C@H](O)[C@@H](NC(=O)OC(C)(C)C)c4ccccc4)C[C@@](O)([C@@H](OC(=O)c4ccccc4)[C@H]21)C3(C)C [Docetaxel] + Nc1ncn([C@H]2C[C@H](O)[C@@H](CO)O2)c(=O)n1 [Decitabine] (partner 2 µM) | EMC-BAC-2 | 0.46
CC(=O)O[C@@]12CO[C@@H]1C[C@H](O)[C@@]1(C)C(=O)[C@H](O)C3=C(C)[C@@H](OC(=O)[C@H](O)[C@@H](NC(=O)OC(C)(C)C)c4ccccc4)C[C@@](O)([C@@H](OC(=O)c4ccccc4)[C@H]21)C3(C)C [Docetaxel] + CC1(C)CCC(c2ccc(Cl)cc2)=C(CN2CCN(c3ccc(C(=O)NS(=O)(=O)c4ccc(N[C@H](CCN5CCOCC5)CSc5ccccc5)c(S(=O)(=O)C(F)(F)F)c4)cc3)CC2)C1 [Navitoclax] (partner 0.5 µM) | EMC-BAC-2 | 0.272
CC(=O)O[C@@]12CO[C@@H]1C[C@H](O)[C@@]1(C)C(=O)[C@H](O)C3=C(C)[C@@H](OC(=O)[C@H](O)[C@@H](NC(=O)OC(C)(C)C)c4ccccc4)C[C@@](O)([C@@H](OC(=O)c4ccccc4)[C@H]21)C3(C)C [Docetaxel] + Cc1nc(Nc2ncc(C(=O)Nc3c(C)cccc3Cl)s2)cc(N2CCN(CCO)CC2)n1 [Dasatinib] (partner 0.075 µM) | EMC-BAC-2 | 0.228
CC(=O)O[C@@]12CO[C@@H]1C[C@H](O)[C@@]1(C)C(=O)[C@H](O)C3=C(C)[C@@H](OC(=O)[C@H](O)[C@@H](NC(=O)OC(C)(C)C)c4ccccc4)C[C@@](O)([C@@H](OC(=O)c4ccccc4)[C@H]21)C3(C)C [Docetaxel] + COc1cc2c(Oc3ccc(NC(=O)C4(C(=O)Nc5ccc(F)cc5)CC4)cc3F)ccnc2cc1OCCCN1CCOCC1 [Foretinib] (partner 0.25 µM) | EMC-BAC-2 | 0.348
CC(=O)O[C@@]12CO[C@@H]1C[C@H](O)[C@@]1(C)C(=O)[C@H](O)C3=C(C)[C@@H](OC(=O)[C@H](O)[C@@H](NC(=O)OC(C)(C)C)c4ccccc4)C[C@@](O)([C@@H](OC(=O)c4ccccc4)[C@H]21)C3(C)C [Docetaxel] + COc1cccc2cc(-c3nc([C@H]4CC[C@H](C(=O)O)CC4)n4ncnc(N)c34)[nH]c12 [OSI-027] (partner 0.5 µM) | EMC-BAC-2 | 0.25
